# Target Under Test: BCL2 D103Y (Homo sapiens, UniProt P10415, D103Y)
# Assay Protocol: TR-FRET competitive binding assay, BCL2 D103Y
# Experimental Context: Ki determined from IC50, read-out: TR_FRET EKI_Bcl2 D103Y
Listed next: entries and their corresponding Ki.

Compound Structure	Target Under Test	Unit Text	Ki
Cc1c(N(C(=O)c2cc(-c3cc4c(cc3C(=O)N3Cc5ccccc5C[C@H]3CN3CCCCC3)CN(C(=O)Cc3ccc(OCCN5CCN(CCF)CC5)cc3F)CC4)n(C)c2C)c2ccc(O)cc2)cc(C#N)n1C	BCL2 D103Y (Homo sapiens, UniProt P10415, D103Y)	pM	110
Cc1nn(C)cc1N(C(=O)c1cc(-c2cc3c(cc2C(=O)N2Cc4ccccc4C[C@H]2C)CN(C(=O)Cc2ccc(OCCN(C)C)cc2)CC3)n(C)c1C)c1ccccc1	BCL2 D103Y (Homo sapiens, UniProt P10415, D103Y)	pM	530
Cc1nn(C)cc1N(C(=O)c1cc(-c2cc3c(cc2C(=O)N2Cc4ccccc4C[C@H]2C)CN(C(=O)Cc2ccc(OCCN4CCOCC4)cc2)CC3)n(C)c1C)c1ccccc1	BCL2 D103Y (Homo sapiens, UniProt P10415, D103Y)	pM	90
Cc1c(N(C(=O)c2cc(-c3cc4c(cc3C(=O)N3Cc5ccccc5C[C@H]3C)CN(C(=O)c3n[nH]c5ccccc35)CC4)n(C)c2C)c2ccc(O)cc2)cc(C#N)n1C	BCL2 D103Y (Homo sapiens, UniProt P10415, D103Y)	pM	3010
Cc1c(N(C(=O)c2cc(-c3cc4c(cc3C(=O)N3Cc5ccccc5C[C@H]3C)CN(C(=O)Cc3ccc(N5CCN(CC(F)(F)F)CC5)cc3)CC4)n(C)c2C)c2ccc(O)cc2)cc(C#N)n1C	BCL2 D103Y (Homo sapiens, UniProt P10415, D103Y)	pM	1090
Cc1c(N(C(=O)c2cc(-c3cc4c(cc3C(=O)N3Cc5ccccc5C[C@H]3C)CN(C(=O)Cc3ccc(OCCN5CCOC6(CC6)C5)cc3)CC4)n(C)c2C)c2ccc(O)cc2)cc(C#N)n1C	BCL2 D103Y (Homo sapiens, UniProt P10415, D103Y)	pM	340
Cc1c(C(=O)N(c2ccc(O)cc2)c2cnn3c2CCCC3)cc(-c2cc3c(cc2C(=O)N2Cc4ccccc4C[C@H]2C)CN(C(=O)Cc2ccc(OCCN4CCOCC4)cc2)CC3)n1C	BCL2 D103Y (Homo sapiens, UniProt P10415, D103Y)	pM	140
Cc1c(N(C(=O)c2cc(-c3cc4c(cc3C(=O)N3Cc5ccccc5C[C@H]3CN3CCC[C@H](C)C3)CN(C(=O)Cc3ccc(OCCN(C)C5CC5)cc3)CC4)n(C)c2C)c2ccc(O)cc2)cc(C#N)n1C	BCL2 D103Y (Homo sapiens, UniProt P10415, D103Y)	pM	510
Cc1c(N(C(=O)c2cc(-c3cc4c(cc3C(=O)N3Cc5ccccc5C[C@H]3CN3CCCCC3)CN(C(=O)Cc3ccc(OCCN5CCOC(C)(C)C5)cc3)CC4)n(C)c2C)c2ccc(O)cc2)cc(C#N)n1C	BCL2 D103Y (Homo sapiens, UniProt P10415, D103Y)	pM	340
Cc1c(N(C(=O)c2cc(-c3cc4c(cc3C(=O)N3Cc5ccccc5C[C@H]3CN3CCCCC3)CN(C(=O)Cc3ccc(OC(C)(C)CN5CCOCC5)cc3)CC4)n(C)c2C)c2ccc(O)cc2)cc(C#N)n1C	BCL2 D103Y (Homo sapiens, UniProt P10415, D103Y)	pM	370
